Tested on: Escherichia coli TOP10
Experiment Summary: shrunken log2 fold change of peptide-encoding DNA abundance (4.5 h post-induction vs induction); higher = less antimicrobial activity (less host growth inhibition)
Test Settings: time post-induction: 4.5 h; library: site-saturation at positions 5, 18, 19, 20

Polymer Sequence	shrunken log2 fold change
RRIRWRPPRLPRPRPRPAFSPRP	0.383
RRIRPRPPRLPRPRPRPTHKPRP	0.283
RRIRARPPRLPRPRPRPGQPPRP	0.00358
RRIRHRPPRLPRPRPRPNLQPRP	-0.0526
RRIRFRPPRLPRPRPRPRIAPRP	0.214
RRIRARPPRLPRPRPRPFQCPRP	0.0143
RRIRKRPPRLPRPRPRPNLDPRP	-0.0443
RRIRDRPPRLPRPRPRPLKFPRP	0.0649
RRIRYRPPRLPRPRPRPYGDPRP	-0.525
RRIRARPPRLPRPRPRPTTSPRP	0.292
RRIRVRPPRLPRPRPRPRYYPRP	-0.0159
RRIRFRPPRLPRPRPRPMKWPRP	-0.0607
RRIRIRPPRLPRPRPRPCYWPRP	-0.131
RRIRSRPPRLPRPRPRPCIMPRP	-0.105
RRIRMRPPRLPRPRPRPNCDPRP	0.194
RRIRIRPPRLPRPRPRPWKLPRP	-0.0644
RRIRIRPPRLPRPRPRPQPWPRP	0.102
RRIRDRPPRLPRPRPRPFQYPRP	0.0242
RRIRQRPPRLPRPRPRPDGAPRP	0.0271
RRIRHRPPRLPRPRPRPADDPRP	0.083
RRIRERPPRLPRPRPRPQNFPRP	-0.486
RRIRDRPPRLPRPRPRPPQTPRP	0.115
RRIRMRPPRLPRPRPRPIHCPRP	-0.105
RRIRKRPPRLPRPRPRPDMIPRP	0.013
RRIRFRPPRLPRPRPRPMPYPRP	-0.218
RRIRVRPPRLPRPRPRPLFLPRP	-0.417
RRIRLRPPRLPRPRPRPRFSPRP	0.0406
RRIRHRPPRLPRPRPRPNIYPRP	-0.11
RRIRGRPPRLPRPRPRPYCDPRP	0.226
RRIRYRPPRLPRPRPRPSNKPRP	-0.953
RRIRSRPPRLPRPRPRPTQRPRP	0.547
RRIRMRPPRLPRPRPRPDSLPRP	-0.0169

----------
Test system: Escherichia coli TOP10;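 note: peptides expressed intracellularly from a pBAD plasmid library in pooled LB shake-flask culture, induced with 0.3% L-arabinose, DNA abundance read by NGS, three biological replicates, DESeq2 with apeglm shrinkage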
Experiment Summary: shrunken log2 fold change of peptide-encoding DNA abundance (4.5 h post-induction vs induction); higher = less antimicrobial activity (less host growth inhibition)
Test Settings: time post-induction: 4.5 h; library: site-saturation at positions 5, 18, 19, 20
Threshold check on shrunken log2 fold change: at or above 0.03 gives Fulfilled, strictly below gives Not fulfilled.

Polymer Sequence	Qualitative Label
RRIRGRPPRLPRPRPRPEFDPRP	Fulfilled
RRIRYRPPRLPRPRPRPLEFPRP	Not fulfilled
RRIRQRPPRLPRPRPRPKTIPRP	Not fulfilled
RRIRVRPPRLPRPRPRPYNNPRP	Not fulfilled
RRIRDRPPRLPRPRPRPEFMPRP	Fulfilled
RRIRSRPPRLPRPRPRPMLMPRP	Not fulfilled
RRIRFRPPRLPRPRPRPIHDPRP	Not fulfilled
RRIRVRPPRLPRPRPRPFRPPRP	Not fulfilled
RRIRHRPPRLPRPRPRPLIWPRP	Not fulfilled
RRIRLRPPRLPRPRPRPWNKPRP	Not fulfilled
RRIRNRPPRLPRPRPRPYHAPRP	Not fulfilled
RRIRARPPRLPRPRPRPPIEPRP	Fulfilled
RRIRTRPPRLPRPRPRPKGTPRP	Not fulfilled
RRIRSRPPRLPRPRPRPKVAPRP	Fulfilled

The reported measurements were obtained from the supplement of paper PMC9112550.
